# Test system: Plasmodium berghei
# protocol-details: Screen against P. berghei liver stage (PbLuc), transformed with Luciferase, at 2uM
# Format: functional, HepG2
# test-conditions: tested at 2 uM
In all, about 68,000 compounds went through this assay and about 2,700 (4%) showed an effect of 50% or more. The sample holds strong results, similar compounds and a random draw of the others, so the mix is not that of the screen.
Short version: INHIBITION at least 30% is 1.0, less is 0.0.

COCCNC(=O)C(C)n1nc(-c2ccc(C)o2)cc(N)c1=O (centres undefined): 0.0
CCn1cnnc1CNC(=O)N(C)Cc1ccc2c(c1)OCCO2: 0.0
OCCN1CCN(Cc2coc(-c3ccccc3Cl)n2)CC1: 1.0
COc1cccc(CC(=O)N2CCc3ncnc(NC(C)C)c3CC2)c1: 0.0
Cc1nnc(N2CC[C@H]3C[C@@H](C(=O)NC4CCCC4)O[C@H]3C2)s1: 0.0

stdin: Kindly determine if INHIBITION recorded for O=C(NCCn1ccnc1)N1CCN(Cc2ccco2)CC1 is above or exactly 30%.
stdout: 1.0

stdin: Identify whether the reported INHIBITION of the following compound is 30% or greater: COCC1CC2(CCN(Cc3ccc(OC)cc3)CC2)CN1C(C)C (centres undefined)
stdout: 0.0

stdin: Tell me whether INHIBITION is at least 30% here: O=C(C1CCCCO1)N1CCc2ncnc(NCc3ccon3)c2CC1 (centres undefined)
stdout: 1.0

stdin: Is the recorded value of INHIBITION equal to or greater than 30% for this compound? O=C(NC[C@]1(O)CCN(Cc2ccccc2F)C[C@H]1O)c1c[nH]cn1
stdout: 1.0

stdin: Exam item: decide whether the reported INHIBITION for CC(Cn1ccnc1)NC(=O)N1CCN(Cc2ccco2)CC1 (centres undefined) is at least 30%.
stdout: 1.0

stdin: Hi team, for COCCOC1CCN(C(C(=O)O)c2c(Cl)cccc2OC)CC1 (centres undefined) , is the recorded INHIBITION at or above 30%?
stdout: 0.0

stdin: Does INHIBITION meet or surpass 30% for CC(O)CN1CCN(Cc2coc(-c3ccccc3Cl)n2)CC1 (centres undefined) ?
stdout: 0.0
